# experimentalTarget: T1, SARS-CoV-2 Receptor Binding Domain (RBD) protein (SARS-CoV-2, UniProt P0DTC2 319-541)
# T1 construct: also called Sars-Cov-2 (COV2)
# testMethodNotes: SPR (Carterra LSA); scFv captured by anti-V5, RBD as analyte
Quick reference for Kd among some binders

binder	Kd
COVID19_P13_B05 (scFv, V domains shown) VH: QVQLVQSGAEVKKPGSSVKVSCKASGYTFTSYDINWVRQAPGQGLEWMGWINPNSGGTNYAQKFQGRVTITADESTSTAYMELSSLRSEDTAVYYCARDTFFGGMDVWGQGTLVTVSS VL: SSYVLTQPPSVSVAPGKTARITCGGNNIGSKSVHWYQQKPGQAPVLVIYYDSDRPSGIPERFSGSNSGNTATLTISRVEAGDEADYYCQVWDSSSYYVFGGGTKLTVLA	21.9 nM
COVID19_P13_D11 (scFv, V domains shown) VH: QVQLVQSGAEVKKPGSSVKVSCKASGYSFNAFYIHWVRQAPGQGLEWMGGIIPIFGTANYAQKFQGRVTITADESTSTAYMELSSLRSEDTAVYYCALETVMGGMDVWGQGTLVTVSS VL: SSYVLTQPPSVSVAPGKTARITCGGNNIGSKSVHWYQQKPGQAPVLVIYYDSDRPSGIPERFSGSNSGNTATLTISRVEAGDEADYYCQVWDGSSDYVFGGGTKLTVLA	35 nM
COVID19_P14_F08 (scFv, V domains shown) VH: QVQLVQSGAEVKKPGSSVKVSCKASGYTFTAFYIHWVRQAPGQGLEWMGGIIPISGTANYAQKFQGRATITADESTSTAYMELSSLRSEDTAVYYCAREVVMGGMDVWGQGTLVTVSS VL: SSYVLTQPPSVSVAPGKTARITCGGNNIGSKSVHWYQQKPGQAPVLVIYYDSDRPSGIPERFSGSNSGNTATLTISRVEAGDEADYYCQVWDSTSDYVFGGGTKLTVLA	25 nM
COVID19_P14_G01 (scFv, V domains shown) VH: QVQLVQSGAEVKKPGSSVKVSCKASGYNFINYYLHWVRQAPGQGLEWMGGITPIFGIANYAQKFQGRVTITADESTSTAYMELSSLRSEDTAVYYCARETVMGGMDVWGQGTLVTVSS VL: SSYVLTQPPSVSVAPGKTARITCGGNKIGSKSVHWYQQKPGQAPVLVIYYDSDRPSGIPERFSGSNSGNTATLTISRVEAGDEADYYCQVWDSGSDYVFGGGTKLTVLA	8.45 nM
COVID19_P02_H04 (scFv, V domains shown) VH: QVQLVQSGAEVKKPGSSVKVSCKASGYTFSSFHINWVRQAPGQGLEWMGGITPIFGIANYAQKFQGRVTITADESTSTAYMELSSLRSEDTAVYYCALETVMGGMDVWGQGTLVTVSS VL: SSYVLTQPPSVSVAPGKTARITCGGNNIGSKSVHWYQQKPGQAPVLVIYYDSDRPSGIPERFSGSNSGNTATLTISRVEAGDEADYYCQSWDSSGDYVFGGGTKLTVLA	31.9 nM
COVID19_P13_D01 (scFv, V domains shown) VH: QVQLVQSGAEVKKPGSSVKVSCKASGYTFSDFDINWVRQAPGQGLEWMGGIIPIFGTANYAQKFQGRVTITADESTSTAYMELSSLRSEDTAVYYCGMDTVMGGMTSWGQGTLVTVSS VL: SSYVLTQPPSVSVAPGKTARITCGGNNIGSKSVHWYQQKPGQAPVLVIYYDSDRPSGIPERFSGSNSGNTATLTISRVEAGDEADYYCQVWDSSHDYVFGGGTKLTVLA	3.14 nM
COVID19_P02_A11 (scFv, V domains shown) VH: QVQLVQSGAEVKKPGSSVKVSCKASGSTFSMFAINWVRQAPGQGLEWVGVINPRGSSTTYAQKFQGRVTITADESTSTAYMELSSLRSEDTAVYYCARDTVMGGMDVWGQGTLVTVSS VL: SSYVLTQPPSVSVAPGKTARITCGGNNIGSKSVHWYQQKPGQAPVLVIYYDSDRPSGIPERFSGSNSGNTATLTISRVEAGDEADYYCQVWDRSSDYVFGGGTKLTVLA	45.1 nM
COVID19_P13_A08 (scFv, V domains shown) VH: QVQLVQSGAEVKKPGSSVKVSCKASGYTFINYDINWVRQAPGQGLEWMGGITPIFGTANYAQKFQGRVTITADESTSTAYMELSSLRSEDTAVYYCARDTVMGGMDVWGQGTLVTVSS VL: SSYVLTQPPSVSVAPGKTARITCGGNNIGSKSVHWYQQKPGQAPVLVIYYDSDRPSGIPERFSGSNSGNTATLTISRVEAGDEADYYCQVWDSRSDYVFGGGTKLTVLA	10 nM
COVID19_P01_H05 (scFv, V domains shown) VH: QVQLVQSGAEVKKPGSSVKVSCKASGGTFSNFALTWVRQAPGQGLEWMGLINPSGGSTSYAQRFQGRVTITADESTSTAYMELSSLRSEDTAVYYCARDSVMGGMDVWGQGTLVTVSS VL: SSYVLTQPPSVSVAPGKTARITCGGNNIGSKSVHWYQQKPGQAPVLVIYYDSDRPSGIPERFSGSNSGNTATLTISRVEAGDEADYYCQVWASSSDYVFGGGTKLTVLA	1.11 nM
